Task for the reader: assign each of the following proteins its reported Enzyme Activity Endpoint Assay (purified): Fab'2.
# targetEntity: pooled human IgG
Report as a plain number; the unit ng/µL is understood.

Could you tell me which Enzyme Activity Endpoint Assay (purified): Fab'2 is on file for PRT-236 (protein) MEVVEVWPYGQNPNGKTEILSQTEDSESLQRLRDIEDFQAEKKMQNVVYTKWLDGVDVDDHDFRKIVDGNIAYYATPLLNGRGFYDINKDFNRDSDKCAAAVAANMFHYWLDINRDNVDRFLRQNPEKHGIIELPDGQLKLSDFLNTYESDHGYRDKSKLFDFISNNFNGPVWTDKLLDNYINGYAYNYKYGRTIEDPTKNTSKINFFKEVFNEKILTNNHSIRNQNEFSVLLSEALYTGKAIGLSYGPAGLRHSLGHIISVWGADLDADGNVVAIYVTDSDDKKLTIGDERVGLKRYKISTDDENRLRLTAYEETHNTGGQIRGLWTLDTGKYAWADYFDKTEQTGTDQAEQLEHHHHHH ? 294

Could you tell me which Enzyme Activity Endpoint Assay (purified): Fab'2 is on file for Ide85 (protein) MANQEIRYSEVTPYHVTSVWTKGVTPPAKFTQGEDVFHAPYVANQGWYDITKTFNGKDDLLCGAATAGNMLHWWFDQNKEKIEAYLKKHPDKQKIMFGDQELLDVRKVINTKGDQTNSELFNYFRDKAFPGLSARRIGVMPDLVLDMFINGYYLNVYKTQTTDVNRTYQEKDRRGGIFDAVFTRGDQSKLLTSRHDFKEKNLKEISDLIKKELTEGKALGLSHTYANVRINHVINLWGADFDSNGNLKAIYVTDSDSNASIGMKKYFVGVNSAGKVAISAKEIKEDNIGAQVLGLFTLSTGQDSWNQTN ? 1130
